molecular target: Caspase-3 (Homo sapiens); assay: Inhibitory activity against recombinant human Caspase-3
Sequence (P42574 29-175 limits assumed): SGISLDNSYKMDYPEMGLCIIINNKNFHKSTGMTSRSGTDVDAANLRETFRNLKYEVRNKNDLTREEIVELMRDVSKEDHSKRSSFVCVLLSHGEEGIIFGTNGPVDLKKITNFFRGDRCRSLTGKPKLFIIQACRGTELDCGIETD
Sequence (P42574 176-277 limits assumed): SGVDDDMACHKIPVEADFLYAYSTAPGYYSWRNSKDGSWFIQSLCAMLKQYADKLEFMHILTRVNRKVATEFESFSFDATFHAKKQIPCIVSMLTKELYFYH
pIC50: −log10 of the molar value.
Threshold check on pIC50: at or above 7 gives True, strictly below gives False.

Prompt line: Exam item: decide whether the reported pIC50 for COc1ccc(Br)cc1[C@H](C(=O)N[C@H](C(=O)N[C@@H](CC(=O)O)C(=O)CSCc1ccccc1)C(C)C)C1CC1 is at least 7.
Response line: False

Prompt line: Lookup COc1ccc(OC)c(CC(=O)N[C@H](C(=O)N[C@@H](CC(=O)O)C(=O)CSCc2ccccc2)C(C)C)c1
Response line: True

---

Overview of recorded pIC50 for various molecules
target: Caspase-8 (Homo sapiens, UniProt Q14790); assay: Inhibitory activity against recombinant human Caspase-8
Sequence (Q14790 217-374 limits assumed): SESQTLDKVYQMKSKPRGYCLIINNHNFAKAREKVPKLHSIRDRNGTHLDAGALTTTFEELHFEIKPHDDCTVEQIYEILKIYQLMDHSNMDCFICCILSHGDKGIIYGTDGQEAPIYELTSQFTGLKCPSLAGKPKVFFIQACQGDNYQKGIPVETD
Sequence (Q14790 385-479 limits assumed): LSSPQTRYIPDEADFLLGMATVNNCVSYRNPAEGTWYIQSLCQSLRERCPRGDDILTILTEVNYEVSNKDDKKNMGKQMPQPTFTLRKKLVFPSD
// pIC50 is dimensionless: -log10 of concentration (M)

Solved entries (count: 6):
1. CC(C)[C@H](NC(=O)C(C)(O)c1ccccc1)C(=O)N[C@@H](CC(=O)O)C(=O)CSCc1ccccc1 (some centres not stated) ... 5.10
2. CO[C@H](C(=O)N[C@H](C(=O)N[C@@H](CC(=O)O)C(=O)CSCc1ccccc1)C(C)C)c1ccccc1 ... 5.04
3. CC(C)[C@H](NC(=O)C1(O)CC1)C(=O)N[C@@H](CC(=O)O)C(=O)CSCc1ccccc1 ... 4.91
4. C#CC[C@@H](C(=O)N[C@H](C(=O)N[C@@H](CC(=O)O)C(=O)CSCc1ccccc1)C(C)C)c1cc(Br)ccc1OC (stereo in doubt; 14) ... 7.04
5. CC(C)[C@H](NC(=O)C(O)c1ccccc1)C(=O)N[C@@H](CC(=O)O)C(=O)CSCc1ccccc1 (single isomer, unassigned) ... 5.44
6. C#CC[C@@H](C(=O)N[C@H](C(=O)N[C@@H](CC(=O)O)C(=O)CSCc1ccccc1)C(C)C)c1cc(Br)ccc1OC (stereo in doubt; 13) ... 5.35

The record that follows has no pIC50 shown yet.
Prompt line: Can you look up pIC50 on Caspase-8 (Homo sapiens, UniProt Q14790) for CC(C)[C@H](NC(=O)Cc1ccccc1)C(=O)N[C@@H](CC(=O)O)C(=O)CSCc1ccccc1 ?
Response line: 4.66
